System: CCRF-CEM
MEASUREMENT NOTES: NCI tumour cell line growth inhibition, 48 h
Active and inactive are the calls of the source. Cut-off read from the data, not from the text of the source: active = GI50 up to about 1.1 µM and inactive = higher.
MEASURED METRIC: GI50

- MOLECULE: "COc1ccc(OC)c2c1-c1nnnn1CCC2(C)C"
  GI50: "> 100 µM (inactive)"

## Task # value lookup — system CCRF-CEM, readout GI50, item Cc1cc2cc3c(cc2c(-c2ccc([N+](=O)[O-])cc2)n1)OCO3
## Result 31.6 µM (inactive)

## Task Item COc1cc(C=C2C(=O)NC(=S)NC2=O)cc(OC)c1OC with CCRF-CEM - GI50?
## Result > 100 µM (inactive)

## Task Notebook entry, CCRF-CEM assay: GI50 of CCCCc1ccc(N2C(=O)c3cc([N+](=O)[O-])cnc3S2(=O)=O)cc1 = ?
## Result > 10 µM (inactive)

## Task # value lookup — system CCRF-CEM, readout GI50, item CC1(C)CC2(C)ON=C(c3ccccc3)N2c2ccccc2N1 (configuration not stated)
## Result 32.7 µM (inactive)

## Task What GI50 appears in the records for this molecule with CCRF-CEM? NC(=O)c1c2c(n3ccccc13)C(=O)c1ccccc1C2=O
## Result > 100 µM (inactive)

## Task Provide value of GI50 for this record tested with CCRF-CEM: O=C(CC1C(=O)Nc2ccccc2[S+]1[O-])Nc1cccc(Cl)c1 (configuration not stated)
## Result > 35.4 µM (inactive)

## Task Please provide the recorded GI50 for CCOC(=O)C1(C)CCC(C(=O)OC)C1=O (configuration not stated) , tested on CCRF-CEM.
## Result 21.9 µM (inactive)

## Task Query GI50 on CCRF-CEM for O=C(Nc1cccc(-c2cn3ccccc3n2)c1)c1ccncc1
## Result 27.3 µM (inactive)

## Task Please state recorded GI50 (tested on CCRF-CEM) of CCOC(=O)C1=C(Nc2ccccc2)SC/C1=N\NC(=O)Cc1ccccc1
## Result > 100 µM (inactive)

## Task Give CCRF-CEM GI50 for COc1cc(O)c2c(O)c3c(=O)oc(C)cc3c(OC)c2c1 [PAEPALANTINE]
## Result 21.4 µM (inactive)

## Task # value lookup — system CCRF-CEM, readout GI50, item C/C(=C(/C)c1ccc(O)cc1)c1ccc(O)cc1
## Result 42.3 µM (inactive)

## Task Form field: GI50 recorded for NNC(=O)C1(NC(=O)c2ccccc2)C(c2ccccc2)C(c2ccccc2)=NN1c1ccccc1 (configuration not stated) with CCRF-CEM (enter value)
## Result 8.99 µM (inactive)

## Task Please provide the recorded GI50 for Cc1ccc(S(=O)(=O)N2CC3OC(C)(C)OC3C2CO)cc1 (configuration not stated) , tested on CCRF-CEM.
## Result > 100 µM (inactive)

## Task Provide the documented GI50 with CCRF-CEM as the system for CNC(=S)/C(C#N)=C(\N)N1CCN(C)CC1
## Result > 100 µM (inactive)

## Task # value lookup — system CCRF-CEM, readout GI50, item O=C1CCC(O)=C1O
## Result > 100 µM (inactive)

## Task Fill in the recorded GI50 for this molecule, with CCRF-CEM as test system: CC1(C)CC(=O)C2=C(C1)OC1(CC2c2ccc(Cl)cc2)CC(c2ccc(Cl)cc2)C2=C(CC(C)(C)CC2=O)O1 (configuration not stated)
## Result 15.5 µM (inactive)

###

Tested on: SK-OV-3
MEASUREMENT NOTES: NCI tumour cell line growth inhibition, 48 h
Activity calls are given as the source filed them. Rule as the data show it: active = GI50 up to about 1.1 µM and inactive = higher. Where a SMILES comes first, the peptide text is derived from it. The star is where a group is joined. Cbz = O=C(OCc1ccccc1)*
MEASURED METRIC: GI50

Solved cases below.
- MOLECULE: "CCOC(=O)CNC(=O)C(C)NC(=O)C(NC(=O)OCc1ccccc1)C(C)C (stereo not drawn) (Cbz-Val-Ala-Gly-OEt; configuration not given here)"
  GI50: "> 100 µM (inactive)"
- MOLECULE: "O=C(NC12CC3CC(CC(C3)C1)C2)C(=O)c1c[nH]c2ccccc12"
  GI50: "16 µM (inactive)"

## Task // returns reported GI50 for input Cc1cc2cc3c(cc2c(-c2ccc([N+](=O)[O-])cc2)n1)OCO3
## Result 25.6 µM (inactive)

## Task # GI50 lookup, item CCCN(C(=O)c1c(Cl)nnc(Cl)c1C(=O)c1cc(Cl)nnc1Cl)c1cc(Cl)nnc1Cl
## Result 33.3 µM (inactive)

###

This section presents compounds with their documented GI50 values.
Tested on: 786-0
MEASUREMENT NOTES: NCI tumour cell line growth inhibition, 48 h
Active and inactive are the calls of the source. Cut-off read from the data, not from the text of the source: active = GI50 up to about 1.1 µM and inactive = higher.

- COMPOUND: "O=c1nc2n(CCO)c(-c3ccccc3)c(-c3ccccc3)nc-2c(=O)[nH]1"
  GI50: "> 100 µM (inactive)"
- COMPOUND: "CCCCc1ccc(N2C(=O)c3cc([N+](=O)[O-])cnc3S2(=O)=O)cc1"
  GI50: "> 100 µM (inactive)"
- COMPOUND: "COc1cc2c3c(c1OC)-c1ccccc1C(C(OC(C)=O)c1ccccc1)C3N(C)CC2 (stereo unspecified)"
  GI50: "74.5 µM (inactive)"

## Task Which measured GI50 value corresponds to COc1ccc(C(=C[N+](=O)[O-])c2ccc(OC)cc2)cc1 ?
## Result 20.8 µM (inactive)

## Task Could you tell me which GI50 is on file for CN(C)CCSc1cc(-c2ccccc2)c2ccccc2n1 ?
## Result 10.8 µM (inactive)

## Task Sample C[C@H]1CCCCC[C@@H]2CC(=O)CC2C(=O)CCC(=O)O1 (stereo partly specified) — what was its GI50?
## Result > 100 µM (inactive)

## Task Recorded GI50 for O=c1oc2ccccc2c(-c2ccc(O)cc2)c1Oc1ccc(Cl)cc1 , please?
## Result 26.9 µM (inactive)

## Task If you can, please state the reported GI50 value of Cc1ccc2c(c1C)C(=O)C1(C2)Cc2ccc3c(c2C1=O)CCC3 (stereo unspecified) .
## Result > 100 µM (inactive)

###

System: SN12C
MEASUREMENT NOTES: NCI tumour cell line growth inhibition, 48 h
Active and inactive are the calls of the source. Rule as the data show it: active = GI50 up to about 1.1 µM and inactive = higher.
# output must be one of T = active, F = inactive

// below: answered molecules
- MOLECULE: "CCCCCCCCCCCCCCCC(=O)OCC1OC(n2cc(F)c(=O)[nH]c2=O)C(NC(=O)OCc2ccccc2)C(O)C1O (centres undefined)"
  GROUP LABEL: "F"
- MOLECULE: "O=C(/C=C/c1ccc(O)cc1)c1cc(-c2cc(CCC(=O)c3ccc(O)cc3O)ccc2O)c(O)cc1O"
  GROUP LABEL: "F"
- MOLECULE: "CCCNC(=O)c1cc(NC(=O)c2cc(NC(=O)/C=C/c3ccccc3)c(OC)c(OC)c2)c(OC)c(OC)c1"
  GROUP LABEL: "T"
- MOLECULE: "O=C1CCC2(c3ccc(F)cc3)Nc3ccccc3N12 (centres undefined)"
  GROUP LABEL: "F"
- MOLECULE: "COC1=CC(=O)c2c(O)c3c(c(O)c2C1=O)C=C(C)OC3O (centres undefined)"
  GROUP LABEL: "T"
- MOLECULE: "COc1cc2c(cc1O)CC13CCC(=O)N1CCc1cc(OC)c(O)c-2c13 (centres undefined)"
  GROUP LABEL: "F"

## Task Hey, what did the test say about CCCCCCSCC/C(C)=N\OC ?
## Result F

## Task // outcome(item) with item = O=C(CCCn1ccnc1[N+](=O)[O-])NCCn1ccnc1[N+](=O)[O-]
## Result F

## Task So what was the verdict on COc1cc(/C=C/C(=N\NC(=O)c2ccccc2)c2sc(Nc3ccc(Cl)c(Cl)c3)nc2C)ccc1O in this test?
## Result F

## Task Recorded call for CN(C(=O)C12C3C4(C(=O)O)C1(C(=O)N(C)C(C)(C)C)C1C2(C(=O)O)C3(C(=O)N(C)C(C)(C)C)C14C(=O)N(C)C(C)(C)C)C(C)(C)C (centres undefined) ?
## Result F

## Task Returns: the outcome recorded for [N-]=[N+]=Nc1cccc(-c2nnc(Cl)cc2O)c1 in this assay.
## Result F

## Task Any idea what this test logged for CCOC(=O)N1N(c2ccccc2)C(=O)C1(c1ccccc1)c1ccccc1 ?
## Result F

###

Test system: NCI/ADR-RES
MEASUREMENT NOTES: NCI tumour cell line growth inhibition, 48 h
Calls of active or inactive are those of the source. Rule as the data show it: active = GI50 up to about 1.1 µM and inactive = higher.
MEASURED METRIC: GI50

Field: example entries. Status: answers known.
- MOLECULE: "COc1ccccc1Cn1[nH]c(=O)c2cc([N+](=O)[O-])ccc21"
  GI50: "75.5 µM (inactive)"
- MOLECULE: "COc1ncnc2c(Cl)c(C(O)c3ccccc3)c(Cl)cc12 (stereo not given)"
  GI50: "28 µM (inactive)"
- MOLECULE: "O=C(O)c1ccccc1-c1ccccc1C(=O)c1ccccc1"
  GI50: "> 100 µM (inactive)"

Now for the molecule whose GI50 we want.
## Task Please look up its GI50: COc1ccc(/C=C/C(=O)N[C@@H]2C(=O)N3[C@@H]2SC(C)(C)[C@@H]3C(=O)O)cc1OC
## Result > 100 µM (inactive)
